- measured.target: T1, monkey CD47ECD-linker peptide-7his (monkey)
- T1 construct: also called Monkey CD47-his
- T1 chain: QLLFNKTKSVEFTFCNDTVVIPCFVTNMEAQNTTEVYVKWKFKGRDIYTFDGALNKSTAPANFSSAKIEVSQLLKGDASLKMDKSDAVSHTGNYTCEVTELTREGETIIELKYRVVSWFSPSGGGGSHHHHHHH
- measurement.description: ELISA, monkey CD47-his coated at 1 µg/ml, cell culture supernatant
assay.endpoint: OD450 (OD450)
# number only, unit OD450 dropped from output

059-1.11.1 (antibody, mouse IgM, V domains shown, Mouse hybridoma antibody; the subclass paragraph gives the light chain type as kappa; also called 059-1.11.1 purified antibody) VH: QVQLQQSGAELVRPGASVTLSCKASGYTFTDYEMHWVKQTPVHGLEWIGAIDPETGGTAYNQKFKGKATLTADKSSSTAYMELRSLTSEDSAVYYCTRGTPYAMDYWGQGTSVTVSS VL: DVVMTQTPLSLPVSLGDQASISCRSSQSLVHSNGNTYLHWYLQKPGQSPKLLIYKVSNRFSGVPERFSGSGSGTDFTLKISRVEAEDLGVYFCSQSTHVPWTFGGGTKLEIK :: 4
059-1.51.2 (antibody, mouse IgM, V domains shown, Mouse hybridoma antibody; light chain type kappa) VH: EVQLQQSGPELVKPGASVKMSCKASGYTFTNYVMHWMKQKPGQGLEWIGYINPYNDDTKYNEKFKDRATLTSDKSSSTAYMELSSLTSEDSAVYYCAKGGYYSMDYWGQGTSVTVSS VL: DVVMTQTPLSLPVSLGDQASISCRSSQSLVHSKGNTYLHWYLQKPGQSPKLLIYKVSNRFSGVPDRFSGSGSGTDFTLKISRVEAEDLGVYFCSQSTHVPFTFGSGTKLEIK :: 0.634
059-1.43.1 (antibody, mouse IgG1, V domains shown, also called 059-1.43.1 purified antibody) VH: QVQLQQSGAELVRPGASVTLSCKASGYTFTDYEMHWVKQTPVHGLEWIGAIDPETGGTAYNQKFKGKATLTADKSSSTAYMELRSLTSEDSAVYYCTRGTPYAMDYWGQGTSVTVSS VL: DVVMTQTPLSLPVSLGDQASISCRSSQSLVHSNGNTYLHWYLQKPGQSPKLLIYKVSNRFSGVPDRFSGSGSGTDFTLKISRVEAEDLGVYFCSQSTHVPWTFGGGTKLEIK :: 4

input: For 059-1.82.1 (antibody, mouse IgG3, V domains shown) VH: EVQLQQSGPELVKPGASVKMSCKASGYTFTNYVMHWVKQKPGQGLEWIGYINPYNDGTNYNEKFKGKATLTSDKSSSTAYMELSSLTSEDSAVYYCAKGGWFSMDYWGQGTSVTVSS VL: DVVMTQTPLSLPVSLGDQASISCRSSQSLVHSNGKTYLQWYLQKPGQSPKLLIYKVSNRFSGVPDRFSGSGSGTDFTLKISRVEAEDLGVYFCSQSTHVYTFGGGTKLEIK , write its OD450.
output: 3.9
